Target: Cholecystokinin receptor type A (Rattus norvegicus)
Sequence (P30551 whole entry): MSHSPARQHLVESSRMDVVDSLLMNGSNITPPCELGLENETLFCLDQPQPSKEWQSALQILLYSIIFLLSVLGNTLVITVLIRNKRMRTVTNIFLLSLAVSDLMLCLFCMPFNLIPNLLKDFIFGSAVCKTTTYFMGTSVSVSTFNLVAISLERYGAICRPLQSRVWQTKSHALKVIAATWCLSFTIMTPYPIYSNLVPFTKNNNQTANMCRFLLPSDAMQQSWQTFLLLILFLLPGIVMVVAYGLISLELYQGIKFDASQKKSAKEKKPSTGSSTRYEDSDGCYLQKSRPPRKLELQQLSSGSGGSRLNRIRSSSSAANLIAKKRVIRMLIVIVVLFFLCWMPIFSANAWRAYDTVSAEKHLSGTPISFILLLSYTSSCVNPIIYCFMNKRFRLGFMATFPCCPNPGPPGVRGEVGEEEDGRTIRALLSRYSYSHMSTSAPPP
Assay: Displacement of [125I]CCK-OP radioligand from Cholecystokinin type A receptor in rat pancreatic acinar membrane binding assay
Observable: IC50

query: // lookup IC50 | system=Cholecystokinin receptor type A (Rattus norvegicus) | key= `O=C(N[C@@H]1C(=O)N(c2ccccc2)C[C@@H]1C(=O)O)c1cc2ccccc2[nH]1`
result: 0.0185 µM

query: Note, next up: `O=C(N[C@@H]1C(=O)N(c2ccccc2)C[C@@H]1C(=O)O)c1ccc2ccccc2c1`
result: 0.016 µM

query: Note, next up: `O=C(N[C@@H]1C(=O)N(c2ccccc2F)C[C@@H]1C(=O)O)c1cnc2ccccc2c1`
result: 0.17 µM

query: Note, next up: `O=C(N[C@@H]1C(=O)N(Cc2ccccc2)C[C@@H]1C(=O)O)c1ccc2ccccc2c1`
result: 1.29 µM

query: Note, next up: `O=C(O)[C@H]1CN(c2ccccc2)C(=O)[C@H]1NS(=O)(=O)c1ccc2ccccc2c1`
result: > 1 µM

query: Note, next up: `O=C(N[C@@H]1C(=O)N(c2ccccc2F)C[C@@H]1C(=O)O)c1ccc2ccccc2c1`
result: 0.062 µM

query: Note, next up: `O=C(N[C@H]1C(=O)N(c2ccccc2)C[C@@H]1C(=O)O)c1cc2ccccc2[nH]1`
result: 0.36 µM

query: Note, next up: `O=C(N[C@@H]1C(=O)N(Cc2ccccc2)C[C@@H]1C(=O)O)c1cc2ccccc2[nH]1`
result: 0.55 µM

query: Note, next up: CCCCCN(CCCCC)C(=O)C(CCC(=O)O)NC(=O)c1ccc(Cl)c(Cl)c1 (stereo unspecified) [LORGLUMIDE]
result: 0.022 µM

query: Note, next up: `O=C(N[C@H]1C(=O)N(c2ccccc2)C[C@@H]1C(=O)O)c1ccc2ccccc2c1`
result: 0.29 µM

query: Note, next up: `CC(C)(C)OC(=O)[C@H]1CN(c2ccccc2)C(=O)[C@H]1NC(=O)c1ccc2ccccc2c1`
result: > 1 µM
